The measurements presented in this section are drawn from the METLIN SMRT retention time set (Domingo-Almenara et al. 2019).

assay: gradient 5% acetonitrile 3 min, to 50% in 2 min, to 85% in 15 min, held 3 min, 100 µL/min; conditions: column: Zorbax Extend-C18 2.1 x 50 mm; eluents: water / acetonitrile, 0.1% formic acid
// boundary case: RP-LC retention time equal to 700 s maps to criterion not met; strictly smaller maps to criterion met

-- ask A record lists Cc1nn(Cc2nc(-c3ccc(NC(=O)c4ccco4)cc3)oc2C)c(C)c1C . Is its RP-LC retention time below 700 s?
-- reply criterion not met

-- ask A record lists CCCN(C)c1nccn2c(=O)n(CC(=O)Nc3ccc4c(c3)OCCO4)nc12 . Is its RP-LC retention time below 700 s?
-- reply criterion met

-- ask A record lists CCc1ccc(OCC(=O)Nc2nnc(C3CC(=O)N(c4ccc(F)cc4)C3)o2)cc1 (centres undefined) . Is its RP-LC retention time below 700 s?
-- reply criterion not met

-- ask A record lists Cc1nc2nc(-c3ccc(C(C)(C)C)cc3)nn2c(C)c1CC(=O)N1CCc2ccccc2C1 . Is its RP-LC retention time below 700 s?
-- reply criterion not met

-- ask A record lists O=C1CC(c2ccccc2)N(Cc2ccc3c(c2)CCO3)CCCCCCN1 (centres undefined) . Is its RP-LC retention time below 700 s?
-- reply criterion met

-- ask A record lists CCOC(=O)c1c(C)[nH]c(C(=O)N2CCC(CC(=O)NCc3ccccc3Cl)CC2)c1C . Is its RP-LC retention time below 700 s?
-- reply criterion not met

-- ask A record lists CN(CC1CCOC1)C(=O)NCCc1ccccc1 (centres undefined) . Is its RP-LC retention time below 700 s?
-- reply criterion met

-- ask A record lists C=CCN1CCc2cc(O)c(O)cc2C(c2ccccc2)C1 (centres undefined) . Is its RP-LC retention time below 700 s?
-- reply criterion met

-- ask A record lists Cc1ccc(NC(=O)Cn2nc(N3CCCC3)c3ccccc3c2=O)cc1C . Is its RP-LC retention time below 700 s?
-- reply criterion not met

-- ask A record lists Cc1cccc(NC(=O)c2cn3c(n2)CCCC3)c1 . Is its RP-LC retention time below 700 s?
-- reply criterion met

-- ask A record lists CC(C)c1ccc(NC(=O)C2CCCN(S(=O)(=O)c3c[nH]c(C(=O)N4CCCC4)c3)C2)cc1 (centres undefined) . Is its RP-LC retention time below 700 s?
-- reply criterion not met

-- ask A record lists CCCNC(=O)Cn1ccc2ccc(-c3nnc(C)o3)cc21 . Is its RP-LC retention time below 700 s?
-- reply criterion met

-- ask A record lists Cc1ccccc1Nc1c(-c2cccc(Cl)c2)nc2cccc(C)n12 . Is its RP-LC retention time below 700 s?
-- reply criterion not met

-- ask A record lists CCOC(=O)c1cc(C2CC2)nc2c1c(=O)n(Cc1ccc(F)cc1)c(=O)n2C . Is its RP-LC retention time below 700 s?
-- reply criterion not met

-- ask A record lists Cc1cnc(C2CC2)n1CCNS(=O)(=O)c1ccccc1C(F)(F)F . Is its RP-LC retention time below 700 s?
-- reply criterion met

-- ask A record lists O=S(=O)(Cc1ccc(F)cc1)NCCc1csc2nc(-c3cccs3)nn12 . Is its RP-LC retention time below 700 s?
-- reply criterion not met

-- ask A record lists CCC(CC)C(=O)N(C)CCc1noc(-c2ccc(C(=O)N3CCCC3)cc2)n1 . Is its RP-LC retention time below 700 s?
-- reply criterion not met

-- ask A record lists CCOC(=O)C1CCN(C(c2ccc(C)cc2)c2c(O)cc(C)n(CC)c2=O)CC1 (centres undefined) . Is its RP-LC retention time below 700 s?
-- reply criterion not met

-- ask A record lists COc1cc([C@H]2Oc3cc([C@@H]4Oc5cc(O)cc(O)c5C(=O)[C@@H]4O)ccc3O[C@@H]2CO)ccc1O . Is its RP-LC retention time below 700 s?
-- reply criterion not met

-- ask A record lists CCn1cnc2ccc(C(=O)NC(C)C)cc2c1=O . Is its RP-LC retention time below 700 s?
-- reply criterion met

-- ask A record lists CC(C)CNC(=O)c1cn(-c2ncccc2-c2nc(C(C)(C)C)no2)cn1 . Is its RP-LC retention time below 700 s?
-- reply criterion not met

-- ask A record lists Cc1ccc(C)c(N2CCN(c3ncc(S(=O)(=O)c4ccc(Cl)cc4)c(N)n3)CC2)c1 . Is its RP-LC retention time below 700 s?
-- reply criterion not met

-- ask A record lists COC(=O)c1cc(S(=O)(=O)N2CCCC2C(=O)Nc2ccccc2)cn1C (centres undefined) . Is its RP-LC retention time below 700 s?
-- reply criterion not met

-- ask A record lists CNC(=O)N1CCc2nn(Cc3ccccc3)c(=O)n2CC1 . Is its RP-LC retention time below 700 s?
-- reply criterion met

-- ask A record lists CCn1c(=O)c(N2CCC(NC(=O)NC3CCCCC3)CC2)nc2ccccc21 . Is its RP-LC retention time below 700 s?
-- reply criterion not met

-- ask A record lists CC(C)c1ccc(S(=O)(=O)N2CCc3c(c(-c4nnc(-c5ccccc5)o4)nn3C)C2)cc1 . Is its RP-LC retention time below 700 s?
-- reply criterion not met

-- ask A record lists Cc1cccc(-c2nnc(C)c(N3CCc4ccccc4C3)n2)c1 . Is its RP-LC retention time below 700 s?
-- reply criterion not met

-- ask A record lists Cc1c(F)cccc1NC(=O)c1cc2n(n1)CCCC2 . Is its RP-LC retention time below 700 s?
-- reply criterion not met

-- ask A record lists Cc1cc(NC(=O)Cn2cnc3nc4c(cc3c2=O)CCCC4)ccc1Br . Is its RP-LC retention time below 700 s?
-- reply criterion not met

-- ask A record lists Cc1ccc(C)c(N2CCN(C(=O)c3c(C)oc4nc(C)nc(N5CCOCC5)c34)CC2)c1 . Is its RP-LC retention time below 700 s?
-- reply criterion not met

-- ask A record lists CS(=O)(=O)N1CCC(C(=O)Nc2ccc3c(c2)N(C(=O)C2CCCO2)CC3)CC1 (centres undefined) . Is its RP-LC retention time below 700 s?
-- reply criterion met

-- ask A record lists COC(=O)C(C)NC(=O)NCc1cccn1Cc1ccccc1 (centres undefined) . Is its RP-LC retention time below 700 s?
-- reply criterion not met

-- ask A record lists CCc1ccc(-c2nc(-c3ccc4nnc(CC)n4c3)no2)cc1 . Is its RP-LC retention time below 700 s?
-- reply criterion not met

-- ask A record lists COc1cc2c(cc1OC)CN(C(=O)CSc1ncnc3sc(C)c(C)c13)CC2 . Is its RP-LC retention time below 700 s?
-- reply criterion not met
